Origin of measurements: patent US11578079B2

- study.target: UniProt:Q9UBT2
- Sequence (Q9UBT2 1-640): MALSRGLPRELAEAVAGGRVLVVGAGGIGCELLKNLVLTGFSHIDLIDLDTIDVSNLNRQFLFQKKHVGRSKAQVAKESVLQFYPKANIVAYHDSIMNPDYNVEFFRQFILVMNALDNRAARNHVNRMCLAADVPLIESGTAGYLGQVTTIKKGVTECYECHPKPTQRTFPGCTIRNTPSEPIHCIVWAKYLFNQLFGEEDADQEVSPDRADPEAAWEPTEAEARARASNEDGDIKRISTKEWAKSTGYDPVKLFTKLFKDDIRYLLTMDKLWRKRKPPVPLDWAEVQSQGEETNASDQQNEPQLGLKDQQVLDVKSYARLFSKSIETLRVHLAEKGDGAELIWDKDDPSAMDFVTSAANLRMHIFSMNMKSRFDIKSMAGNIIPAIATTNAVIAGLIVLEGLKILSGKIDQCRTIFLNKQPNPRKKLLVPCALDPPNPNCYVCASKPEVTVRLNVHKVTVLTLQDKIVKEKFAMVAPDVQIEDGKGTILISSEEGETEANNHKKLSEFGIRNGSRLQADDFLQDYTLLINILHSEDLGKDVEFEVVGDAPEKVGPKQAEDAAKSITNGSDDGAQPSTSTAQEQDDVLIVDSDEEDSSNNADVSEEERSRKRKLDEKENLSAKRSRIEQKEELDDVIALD
- Sequence (Q9UBE0 1-346 partner): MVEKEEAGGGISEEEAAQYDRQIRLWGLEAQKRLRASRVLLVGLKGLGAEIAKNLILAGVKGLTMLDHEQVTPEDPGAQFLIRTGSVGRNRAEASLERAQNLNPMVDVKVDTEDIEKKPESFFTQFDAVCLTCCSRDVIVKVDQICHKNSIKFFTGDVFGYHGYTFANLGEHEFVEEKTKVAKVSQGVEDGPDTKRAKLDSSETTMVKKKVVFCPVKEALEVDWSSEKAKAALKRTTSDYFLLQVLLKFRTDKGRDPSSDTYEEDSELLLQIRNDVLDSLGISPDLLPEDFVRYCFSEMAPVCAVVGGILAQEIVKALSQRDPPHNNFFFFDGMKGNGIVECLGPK
- assay: SUMO activity (Table I, biological activities)
- Assay type: biochemical
- Parameters: key: + (less active); ++ (active); +++ (most active)
property.measured: SUMO

Previously resolved entries follow.
- molecule: "COC(=O)C1=C(C(=O)N(C)C)C2C=CC1(C(Cc1ccccc1)Nc1ccccc1)O2 (centres unmarked) [Compound 154]"
  study.target: "UniProt:Q9UBT2"
  property.measured: "SUMO"
  result: "+"
- molecule: "Cc1ccc(S(=O)(=O)C2=CC3(C)C=CC2(C(Cc2ccccc2)Nc2ccccc2)O3)cc1 (centres unmarked) [Compound 531]"
  study.target: "UniProt:Q9UBT2"
  property.measured: "SUMO"
  result: "+"
- molecule: "CCOC(=O)C1=CC2OC1(C(Nc1ccccc1)c1ccccc1)c1ccccc12 (centres unmarked) [Compound 625]"
  study.target: "UniProt:Q9UBT2"
  property.measured: "SUMO"
  result: "+"
- molecule: "CCN(CC)CCNC(=O)C1=C(C(=O)OC)C2(C(Cc3ccc(C(F)(F)F)cc3)Nc3ccccc3)C=CC1O2 (centres unmarked) [Compound 424]"
  study.target: "UniProt:Q9UBT2"
  property.measured: "SUMO"
  result: "++"
- molecule: "COC(=O)C1=C(C(=O)OC)C2(C(Cc3cccnc3Cl)Nc3ccccc3)C=CC1O2 (centres unmarked) [Compound 668]"
  study.target: "UniProt:Q9UBT2"
  property.measured: "SUMO"
  result: "++"

Give SUMO for each listed item.
1. COC(=O)C1=C(C(=O)OC)C2(C(Cc3ccccc3C#N)Nc3ccccc3)C=CC1O2 (centres unmarked) [Compound 660]
2. COC(=O)C1=C(C(=O)Nc2ccc(OC(F)(F)F)cc2)C2C=CC1(C(Cc1ccccc1)Nc1ccccc1)O2 (centres unmarked) [Compound 196]
3. COC(=O)C1=C(C(=O)Nc2ccc(F)cc2)C2C=CC1(C(Cc1ccccc1)Nc1ccccc1)O2 (centres unmarked) [Compound 166]

Result:
1. ++
2. +
3. ++
